- Protocol Description: Oral bioavailability in CD-1 mouse at 100 mg/kg
- Format: ADME, organism-based
- Condition Set: in vivo
Observation Type: bioavailability (%)
Numbers only, in %.

Any idea what its bioavailability is? The compound is "C=CC(=O)N1CCN(c2nc(OC[C@@H]3CCCN3C)nc3c2CCN(c2cc(O)cc4ccccc24)C3)CC1"
2.4

###

- Protocol Description: Plasma concentration in CD-1 mouse at 100 mg/kg, ip measured after 1 hr
- Format: ADME, organism-based
Observation Type: concentration at 1 h (ng/mL)
Give bare numbers, in ng/mL.

Dear colleague, I am looking for the recorded concentration at 1 h of the following compound: "C=CC(=O)N1CCN(c2nc(OC[C@@H]3CCCN3C)nc3c2CCN(c2cc(O)cc4ccccc24)C3)CC1"
17000

###

- Protocol Description: Plasma concentration in CD-1 mouse at 100 mg/kg, ip measured after 3 hrs
- Assay type: ADME, organism-based
Observation Type: concentration at 3 h (ng/mL)
One number for each entry, in ng/mL.

What does the data say about its concentration at 3 h? Entry: "C=CC(=O)N1CCN(c2nc(OC[C@@H]3CCCN3C)nc3c2CCN(c2cc(O)cc4ccccc24)C3)CC1"
1400

###

- Protocol Description: Plasma concentration in CD-1 mouse at 15 mg/kg, ip measured after 0.5 hrs
- Assay type: ADME, organism-based
Observation Type: concentration at 0.5 h (ng/mL)
One number for each entry, in ng/mL.

Which concentration at 0.5 h is reported for this compound? "C=CC(=O)N1CCN(c2nc(OC[C@@H]3CCCN3C)nc3c2CCN(c2cc(O)cc4ccccc24)C3)CC1"
1500

###

- Protocol Description: Protein binding in CD-1 mouse plasma at 1 uM by equilibrium dialysis method
- Assay type: ADME, cell-free
- Condition Set: read-out: PPB (converted)
Observation Type: fraction unbound at 1 µM

What value of measured fraction unbound at 1 µM is listed for "C=CC(=O)N1CCN(c2nc(OC[C@@H]3CCCN3C)nc3c2CCN(c2cc(O)cc4ccccc24)C3)CC1" ?
0.05

###

Consider the following compounds; for each one, report its IC50.
- Test System: GTPase KRas (Homo sapiens, UniProt P01116, G12C)
- Sequence (P01116 whole entry G12C): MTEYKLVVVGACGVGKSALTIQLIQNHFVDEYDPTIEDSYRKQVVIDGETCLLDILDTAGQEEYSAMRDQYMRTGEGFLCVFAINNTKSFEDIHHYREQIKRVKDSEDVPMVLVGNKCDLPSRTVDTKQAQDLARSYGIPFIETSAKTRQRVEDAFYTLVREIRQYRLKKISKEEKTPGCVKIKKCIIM
- Protocol Description: Inhibition of KRAS G12C mutant in human NCI-H358 cells assessed as reduction in ERK phosphorylation measured after 3 hrs by Western blot analysis
Numbers only, in µM.

# count of solved cases: 3
{"Structure Smiles": "C=CC(=O)N1CCN(c2ncnc3c2CCN(c2cc(O)cc4ccccc24)C3)CC1", "Measure Unit": "µM", "Observed Value": 7.6}
{"Structure Smiles": "C=CC(=O)N1CCN(c2nc(OCCCN(C)C)nc3c2CCN(c2cc(O)cc4ccccc24)C3)CC1", "Measure Unit": "µM", "Observed Value": 1.5}
{"Structure Smiles": "C=CC(=O)N1CCN(c2nc(O[C@@H](C)CN(C)C)nc3c2CCN(c2cc(O)cc4ccccc24)C3)CC1", "Measure Unit": "µM", "Observed Value": 0.54}

State the recorded IC50 for this entry: "C=CC(=O)N1CCN(c2nc(OCCN(C)C)nc3c2CCN(c2cc(O)cc4ccccc24)C3)CC1"
1.9

###

- System: GTPase KRas (Homo sapiens), P01116 [G12C]
- Sequence (P01116 whole entry G12C): as above
- Protocol Description: Binding affinity to KRAS G12C mutant (unknown origin) assessed as covalent modification at 5 uM after 3 hrs by LC-MS analysis relative to control
Label t when Activity < 20%; otherwise f.

For orientation, consider the following solved cases.
{"Structure Smiles": "C=CC(=O)N1CCN(c2ncnc3c2CCN(c2cc(O)ccc2F)C3)CC1", "Assigned Class": "t"}
{"Structure Smiles": "C=CC(=O)N1CCN(c2ncnc3c2CCN(c2cccc4ccc(O)cc24)C3)CC1", "Assigned Class": "t"}
{"Structure Smiles": "C=CC(=O)N1CCN(c2ncnc3c2CCN(c2cc(O)cc4ccccc24)C3)CC1", "Assigned Class": "f"}
{"Structure Smiles": "C=CC(=O)N1CCN(c2ncnc3c2CCN(c2c(C)ccc4[nH]ncc24)C3)CC1", "Assigned Class": "f"}
{"Structure Smiles": "C=CC(=O)N1CCN(c2ncnc3c2CCN(c2cccc4ccccc24)C3)CC1", "Assigned Class": "t"}

Dear reviewer, please state whether "C=CC(=O)N1CCN(c2ncnc3c2CCN(c2c(O)cccc2F)C3)CC1" has Activity strictly beneath 20%.
t

###

- System: GTPase KRas (Homo sapiens), P01116 [G12C]
- Protocol Description: Binding affinity to KRAS G12C mutant (unknown origin) assessed as covalent modification at 3 uM after 15 mins by LC-MS analysis relative to control
Answer each item with its documented Activity.
Give bare numbers, in %.

The cases that follow already have their Activity on record.
{"Structure Smiles": "C=CC(=O)N1CCN(c2nc(O[C@@H](C)CN(C)C)nc3c2CCN(c2cc(O)cc4ccccc24)C3)CC1", "Test System": "GTPase KRas (Homo sapiens), P01116 [G12C]", "Measure Unit": "%", "Activity": 21}
{"Structure Smiles": "C=CC(=O)N1CCN(c2nc(OCCCN(C)C)nc3c2CCN(c2cc(O)cc4ccccc24)C3)CC1", "Test System": "GTPase KRas (Homo sapiens), P01116 [G12C]", "Measure Unit": "%", "Activity": 22}
{"Structure Smiles": "C=CC(=O)N1CCN(c2nc(OC[C@@H]3CCCN3C)nc3c2CCN(c2cc(O)cc4ccccc24)C3)CC1", "Test System": "GTPase KRas (Homo sapiens), P01116 [G12C]", "Measure Unit": "%", "Activity": 84}
{"Structure Smiles": "C=CC(=O)N1CCN(c2ncnc3c2CCN(c2cc(O)cc4ccccc24)C3)CC1", "Test System": "GTPase KRas (Homo sapiens), P01116 [G12C]", "Measure Unit": "%", "Activity": 8}

Please state recorded Activity (tested on GTPase KRas (Homo sapiens), P01116 [G12C]) of "C=CC(=O)N1CCN(c2nc(OCCN(C)C)nc3c2CCN(c2cc(O)cc4ccccc24)C3)CC1"
52

###

- Protocol Description: Plasma concentration in CD-1 mouse at 50 mg/kg, ip measured after 0.5 hrs
- Type: ADME, organism-based
Observation Type: concentration at 0.5 h (ng/mL)
Give bare numbers, in ng/mL.

// lookup concentration at 0.5 h for "C=CC(=O)N1CCN(c2nc(OC[C@@H]3CCCN3C)nc3c2CCN(c2cc(O)cc4ccccc24)C3)CC1"
8300

###

- Protocol Description: Plasma concentration in CD-1 mouse at 100 mg/kg, ip measured after 0.5 hrs
- Format: ADME, organism-based
Observation Type: concentration at 0.5 h (ng/mL)
Answers are plain numbers, in ng/mL.

GET /values?readout=concentration at 0.5 h&item= "C=CC(=O)N1CCN(c2nc(OC[C@@H]3CCCN3C)nc3c2CCN(c2cc(O)cc4ccccc24)C3)CC1"
26000

###

- Protocol Description: Plasma concentration in CD-1 mouse at 100 mg/kg, ip measured after 6 hrs
- Type: ADME, organism-based
Observation Type: concentration at 6 h (ng/mL)
Answers are plain numbers, in ng/mL.

Can you share its concentration at 6 h? I mean this compound: "C=CC(=O)N1CCN(c2nc(OC[C@@H]3CCCN3C)nc3c2CCN(c2cc(O)cc4ccccc24)C3)CC1"
1300

###

- Protocol Description: Plasma concentration in CD-1 mouse at 50 mg/kg, ip measured after 1 hr
- Format: ADME, organism-based
Observation Type: concentration at 1 h (ng/mL)
Answers are plain numbers, in ng/mL.

Query: concentration at 1 h; subject: "C=CC(=O)N1CCN(c2nc(OC[C@@H]3CCCN3C)nc3c2CCN(c2cc(O)cc4ccccc24)C3)CC1"
2600

###

- Protocol Description: Plasma concentration in CD-1 mouse at 50 mg/kg, ip measured after 3 hrs
- Assay type: ADME, organism-based
Observation Type: concentration at 3 h (ng/mL)
Give bare numbers, in ng/mL.

What value of concentration at 3 h has been recorded for this entry: "C=CC(=O)N1CCN(c2nc(OC[C@@H]3CCCN3C)nc3c2CCN(c2cc(O)cc4ccccc24)C3)CC1"
250

###

- Protocol Description: AUC (infinity) in CD-1 mouse at 100 mg/kg, po
- Format: ADME, organism-based
- Design: dose 100 mg/kg, time infinity, route oral
- Condition Set: in vivo
Observation Type: AUC(0-inf) (ng·h/mL)
Give bare numbers, in ng·h/mL.

# lookup: AUC(0-inf) of "C=CC(=O)N1CCN(c2nc(OC[C@@H]3CCCN3C)nc3c2CCN(c2cc(O)cc4ccccc24)C3)CC1"
880

###

- Protocol Description: Half life in CD-1 mouse at 3 mg/kg, iv
- Assay type: ADME, organism-based
- Condition Set: in vivo
Observation Type: half-life (min)
Answers are plain numbers, in min.

What half-life value was documented for this compound, "C=CC(=O)N1CCN(c2nc(OC[C@@H]3CCCN3C)nc3c2CCN(c2cc(O)cc4ccccc24)C3)CC1" ?
57.6
